test system: 422866-222-R5-J1-PDC spheroid viability; assay: Anticancer human tumor 422866-222-R5-J1-PDC patient-derived pancreatic adenocarcinoma cell line growth inhibition [CLK]; conditions: second compound 0.0316 µM; first compound 0.3 µM; spheroids with HUVEC and MSC; active = viability on the fitted dose curve at most 10% of control; inactive = the rest
Response enum: Y (active), N (inactive)

Which outcome was assigned to C=CC(=O)Nc1cc(Nc2nccc(-c3cn(C)c4ccccc34)n2)c(OC)cc1N(C)CCN(C)C + CN1CCN(c2cc(C(=O)Nc3cc4cc(-c5cnn(C)c5)ccc4cn3)ccn2)CC1 in this test?
N

Which outcome was assigned to NC(=O)C(=Cn1cnc(-c2cc(C(F)(F)F)cc(C(F)(F)F)c2)n1)c1cncnc1 + CNC(=O)c1ccc(Nc2nc(OC3CCCC3)c3c(-c4ccc5nc(C)oc5c4)c[nH]c3n2)c(OC)c1 in this test?
N

Which outcome was assigned to C=CC(=O)Nc1cc(Nc2nccc(-c3cn(C)c4ccccc34)n2)c(OC)cc1N(C)CCN(C)C + CNC(=O)c1ccc(Nc2nc(OC3CCCC3)c3c(-c4ccc5nc(C)oc5c4)c[nH]c3n2)c(OC)c1 in this test?
N

Which outcome was assigned to CC(C)CC(NC(=O)C(Cc1ccccc1)NC(=O)c1cnccn1)B(O)O (stereo unspecified) + CNC(=O)c1ccc(Nc2nc(OC3CCCC3)c3c(-c4ccc5nc(C)oc5c4)c[nH]c3n2)c(OC)c1 in this test?
Y

Which outcome was assigned to CC(C)CC(NC(=O)C(Cc1ccccc1)NC(=O)c1cnccn1)B(O)O (stereo unspecified) + CN1CCN(c2cc(C(=O)Nc3cc4cc(-c5cnn(C)c5)ccc4cn3)ccn2)CC1 in this test?
Y

Which outcome was assigned to NC(=O)C(=Cn1cnc(-c2cc(C(F)(F)F)cc(C(F)(F)F)c2)n1)c1cncnc1 + CN1CCN(c2cc(C(=O)Nc3cc4cc(-c5cnn(C)c5)ccc4cn3)ccn2)CC1 in this test?
N

====

system: 422866-222-R5-J1-PDC spheroid viability; test: Anticancer human tumor 422866-222-R5-J1-PDC cell line growth inhibition [CLK]; settings: second compound 3.16 µM; first compound 0.003 µM; active compounds read low; spheroids with HUVEC and MSC;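 also: spheroids exposed to agents for seven days before readout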
I'd appreciate it if you could supply viability, T/C values for the items below.
Numbers only here, please. The scale is %.

Recorded viability, T/C for CC(C)CC(NC(=O)C(Cc1ccccc1)NC(=O)c1cnccn1)B(O)O (centres undefined) + CN1CCN(c2cc(C(=O)Nc3cc4cc(-c5cnn(C)c5)ccc4cn3)ccn2)CC1 with 422866-222-R5-J1-PDC spheroid viability, please?
4.26

Recorded viability, T/C for CC(C)CC(NC(=O)C(Cc1ccccc1)NC(=O)c1cnccn1)B(O)O (centres undefined) + CNC(=O)c1ccc(Nc2nc(OC3CCCC3)c3c(-c4ccc5nc(C)oc5c4)c[nH]c3n2)c(OC)c1 with 422866-222-R5-J1-PDC spheroid viability, please?
69.7

Recorded viability, T/C for C=CC(=O)Nc1cc(Nc2nccc(-c3cn(C)c4ccccc34)n2)c(OC)cc1N(C)CCN(C)C + CNC(=O)c1ccc(Nc2nc(OC3CCCC3)c3c(-c4ccc5nc(C)oc5c4)c[nH]c3n2)c(OC)c1 with 422866-222-R5-J1-PDC spheroid viability, please?
61.6

Recorded viability, T/C for C=CC(=O)Nc1cc(Nc2nccc(-c3cn(C)c4ccccc34)n2)c(OC)cc1N(C)CCN(C)C + CN1CCN(c2cc(C(=O)Nc3cc4cc(-c5cnn(C)c5)ccc4cn3)ccn2)CC1 with 422866-222-R5-J1-PDC spheroid viability, please?
9.88
